# Test system: MAP4K3;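 note: KINOMEscan kinase panel screen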
# test_conditions: concentration: 1 μM, replicates: in singlicate; n = 1
quantity: %Inh (%)

> print(dat)
                                    compound  quantity  measurement.unit  result
 1  Cc1cccc(Cn2ccn3c(=O)cc(N4CCOCC4)nc23)c1 [GSK2297542]      %Inh                 %       0
 2  Cn1ccc2ncnc(Oc3ccc(NC(=O)Nc4ccncc4)c(Cl)c3)c21      %Inh                 %       0
 3  NS(=O)(=O)c1cccc(-c2ccc3ncc(N4CCOCC4)nc3c2)c1 [GSK1535721]      %Inh                 %       0
 4  O=C(c1ccc(-c2cc(-c3c[nH]nc3-c3ccccn3)ccn2)cc1)N1CCOCC1 [GW812171]      %Inh                 %       0
 5  CN1c2ccc(NCc3ccc(F)cc3)cc2-c2c(cnn2C)S1(=O)=O      %Inh                 %       1
 6  Cc1nnc(-c2ccc(C)c(-c3ccc(C(=O)Nc4ccc(NS(C)(=O)=O)cc4)cc3)c2)o1 [GW702865]      %Inh                 %       0
 7  O=c1cc(N2CCOCC2)nc2n(Cc3cccc4ccccc34)ccn12 [GSK2333389]      %Inh                 %       6
 8      CSc1ccc(-c2cc3ncnc(SCC(=O)O)c3s2)cc1      %Inh                 %       0
 9  NCC(NC(=O)c1cc(-c2cn[nH]c2)c(-c2ccnc3[nH]ccc23)s1)c1ccccc1.O=C(O)C(F)(F)F.O=C(O)C(F)(F)F (stereo not drawn) [GSK1325775]      %Inh                 %       6
10  Cc1cccc(-c2nc(-c3ccc(S(C)(=O)=O)cc3)sc2-c2ccncc2)c1      %Inh                 %       0
11  Nc1nc(-c2ccc3c(N)n[nH]c3c2)cc(N2CCCC2)n1 [GSK2227430]      %Inh                 %       0
12  O=C(NCCCN1CCOCC1)c1cccc(Nc2nccc(Nc3ccc(Oc4ccccc4)cc3)n2)c1 [GW663929]      %Inh                 %       0
13  CN1c2ccc(CNc3ccc(F)cc3)cc2-c2c(cnn2C)S1(=O)=O      %Inh                 %       8
14  CC(C)Oc1ccc2c(-c3ccnc(Nc4ccc(N5CCN(C)CC5)cc4)n3)cnn2n1 [GW696155]      %Inh                 %      52
15  Cc1cn2c(=O)cc(N3CCOCC3)nc2n1Cc1cccc(Cl)c1Cl [GSK2334006]      %Inh                 %       5
16    CCCCCc1nc2c(N)ncnc2n1CCCCC [SKF-97255]      %Inh                 %       2
17  CC(=O)Nc1ccc(COc2ccc(Nc3ccnc4cc(-c5ccccn5)ccc34)cc2)cc1.Cl [GW440148]      %Inh                 %       0
18  O=C(NCCNc1ccnc(Nc2ccc(F)cc2)n1)c1cc2ccccc2s1 [GSK1379874]      %Inh                 %       0
